MIC overview
system: Staphylococcus aureus ATCC 25923; test: ≥ marks a high value that may be exact or a test limit, other limits are often not marked, values filed in µg/mL are converted to µM

Inquiry: // lookup MIC for `CC(C)C[C@H](NC(=O)[C@H](CC(C)C)NC(=O)[C@H](CCCN=C(N)N)NC(=O)[C@H](Cc1c[nH]c2ccccc12)NC(=O)[C@H](Cc1c[nH]c2ccccc12)NC(=O)[C@@H](N)CCCCN)C(=O)N[C@@H](Cc1cnc[nH]1)C(=O)N[C@@H](CCCCN)C(=O)N[C@@H](CCCCN)C(=O)N[C@@H](CCC(N)=O)C(N)=O`
Reply text: 351 µM

Inquiry: // lookup MIC for `CC[C@H](C)[C@H](NC(=O)[C@H](CCCN=C(N)N)NC(=O)[C@H](CC(N)=O)NC(=O)[C@H](Cc1ccccc1)NC(=O)[C@H](CC(C)C)NC(=O)CNC(=O)[C@H](CCSC)NC(=O)[C@@H](N)CC(C)C)C(=O)N[C@H](C(=O)N[C@@H](CCCN=C(N)N)C(=O)N[C@@H](CCCCN)C(=O)N[C@H](C(=O)N[C@H](C(=O)N[C@@H](CCCCN)C(=O)N[C@@H](CC(C)C)C(=O)N[C@@H](Cc1ccccc1)C(=O)N[C@@H](CC(N)=O)C(N)=O)C(C)C)C(C)C)[C@@H](C)CC`
Reply text: 8 µM

Inquiry: // lookup MIC for `CC[C@H](C)[C@H](N)C(=O)N[C@@H](CCCCN)C(=O)N[C@@H](CCCCN)C(=O)N[C@@H](CCCN=C(N)N)C(=O)N[C@@H](Cc1c[nH]c2ccccc12)C(=O)N[C@@H](Cc1c[nH]c2ccccc12)C(=O)N[C@@H](Cc1c[nH]c2ccccc12)C(=O)N[C@@H](Cc1ccccc1)C(=O)N[C@@H](CCCN=C(N)N)C(=O)O`
Reply text: 22.8 µM

Inquiry: // lookup MIC for `CC[C@H](C)[C@H](NC(=O)CN)C(=O)N[C@@H](Cc1ccccc1)C(=O)N[C@@H](CC(=O)O)C(=O)N[C@H](C(=O)N[C@@H](CC(C)C)C(=O)N[C@@H](CCCCN)C(=O)N[C@@H](CC(N)=O)C(=O)N[C@@H](CC(C)C)C(=O)N[C@@H](C)C(=O)N[C@@H](CCCCN)C(=O)NCC(=O)N[C@H](C(=O)N[C@H](C(=O)N[C@H](C(=O)N[C@@H](CO)C(=O)N[C@@H](CC(C)C)C(=O)N[C@@H](C)C(=O)N[C@@H](CO)C(N)=O)[C@@H](C)O)[C@@H](C)CC)C(C)C)C(C)C`
Reply text: 12.5 µM

Inquiry: // lookup MIC for `C[C@H](NC(=O)[C@H](CCCN=C(N)N)NC(=O)[C@H](Cc1c[nH]c2ccccc12)NC(=O)[C@H](CCCN=C(N)N)NC(=O)[C@H](Cc1c[nH]c2ccccc12)NC(=O)[C@H](Cc1c[nH]c2ccccc12)NC(=O)[C@H](Cc1c[nH]c2ccccc12)NC(=O)[C@H](CCCN=C(N)N)NC(=O)[C@H](Cc1c[nH]c2ccccc12)NC(=O)[C@H](CCCN=C(N)N)NC(=O)[C@@H](N)[C@@H](C)O)C(N)=O`
Reply text: 1 µM
